Molecular target: beta-catenin (human)
Sequence (B6V8E6 146-665 limits assumed): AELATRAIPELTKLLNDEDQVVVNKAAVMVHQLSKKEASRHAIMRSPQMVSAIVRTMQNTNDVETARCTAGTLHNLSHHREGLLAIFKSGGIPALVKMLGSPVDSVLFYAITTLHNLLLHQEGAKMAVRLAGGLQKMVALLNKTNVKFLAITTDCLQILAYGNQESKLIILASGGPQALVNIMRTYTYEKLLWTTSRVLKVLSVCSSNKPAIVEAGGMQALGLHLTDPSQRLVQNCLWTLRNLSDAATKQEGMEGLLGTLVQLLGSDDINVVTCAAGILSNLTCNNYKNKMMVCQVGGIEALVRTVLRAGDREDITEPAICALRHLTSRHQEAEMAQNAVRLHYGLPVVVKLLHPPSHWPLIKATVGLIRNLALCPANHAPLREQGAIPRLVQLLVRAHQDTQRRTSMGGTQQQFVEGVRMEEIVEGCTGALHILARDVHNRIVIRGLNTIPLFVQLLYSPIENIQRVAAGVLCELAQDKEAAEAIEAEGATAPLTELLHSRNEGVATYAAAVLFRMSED
Test: fluorescence polarization
*1 amine or outer side, *2 acyl side, *3 side chain or, on linkers, in order; H or OH if unused. Bridges are numbered along the chain shown (N, C = ends). Primed or numbered codes have the meaning given here. [ ]: non-standard residue; d: D form. PyrS2(5) = (S)-3-amino-1-((pent-4-en-1-yloxy)carbonyl)pyrrolidine-3-carboxylic acid, C=CCCCOC(=O)N1CC[C@@](N[*:1])(C(=O)[*:2])C1; B5(5) = 2-amino-2-(pent-4-en-1-yl)hept-6-enoic acid (two olefin arms), C=CCCCC(CCCC=C)(N[*:1])C(=O)[*:2]; Phe(3-COOH) = N[C@@H](Cc1cccc(C(=O)O)c1)C(=O)O; Bta = N[C@@H](Cc1csc2ccccc12)C(=O)O; αAllylPro = C=CC[C@@]1(C(=O)O)CCCN1; tBuAla = CC(C)(C)C[C@H](N)C(=O)O; 3Thi = N[C@@H](Cc1ccsc1)C(=O)O; PyrS2(4) = not defined here; GlnR = not defined here; PL3 = not defined here; B5 = not defined here; Aib = CC(C)(N)C(=O)O
Entries and their IC50 values follow.

{"binder": "Ac-[αAllylPro]E[tBuAla][B5(5)]E[Phe(3-COOH)][Aib]AFK[PyrS2(5)][3Thi][Bta][GlnR]A-NH2 (bridge 10-14; not fully specified (bridges); printed as Ac-PL3-Glu-Npg-B5-Glu-3COOHF-Aib-Ala-Phe-Lys*3-PyrS2-3Thi-BztA-GlnR*3-Ala-NH2; reading uncertain) [I-470]", "IC50": "> 1000 nM"}

Note: attention shifts to another entry.
Form field IC50, entry Ac-[PL3]DL[B5]D[Phe(3-COOH)]AAFK[PyrS2(4)][3Thi][Bta][GlnR]-NH2 (staple 1-4; bridge 10-14; not fully specified (residue 10); printed as Ac-PL3-Asp-Leu-B5-Asp-3COOHF-Ala-Ala-Phe-dLys*3-PyrS2-3Thi-BztA-GlnR*3-NH2; reading uncertain; also: PyrS2 tied into a staple, partner not placed) [I-10] : < 50 nM
